Entry source: paper PMC4229968

target: UGT1A8 (Homo sapiens); construct: purchased BD Gentest Corp. (Woburn, MA, USA); host or cells: baculovirus-infected insect cells; test: Recombinant UGT1A8-catalyzed 4-MU glucuronidation inhibition; type: in vitro ADME; details: human, pH 7.4, probe 4-methylumbelliferone (4-MU); UGT1A8, 100 μM of compound, 4-MU substrate; read-out: residual activity
Sequence (Q9HAW9 26-530): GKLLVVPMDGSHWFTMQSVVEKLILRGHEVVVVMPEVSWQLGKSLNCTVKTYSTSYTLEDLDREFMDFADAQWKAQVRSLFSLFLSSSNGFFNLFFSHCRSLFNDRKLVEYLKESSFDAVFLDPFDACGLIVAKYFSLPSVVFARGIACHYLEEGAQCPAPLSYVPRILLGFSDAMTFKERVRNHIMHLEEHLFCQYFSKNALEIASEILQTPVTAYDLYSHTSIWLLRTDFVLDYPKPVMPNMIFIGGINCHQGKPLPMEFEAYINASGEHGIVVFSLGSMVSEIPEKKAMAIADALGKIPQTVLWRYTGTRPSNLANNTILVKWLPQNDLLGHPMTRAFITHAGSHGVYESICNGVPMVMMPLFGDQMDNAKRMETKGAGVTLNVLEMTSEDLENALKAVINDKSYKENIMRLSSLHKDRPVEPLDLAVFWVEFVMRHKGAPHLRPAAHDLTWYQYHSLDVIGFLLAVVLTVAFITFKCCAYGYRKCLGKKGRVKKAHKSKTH
Property Measured: activity at 100 µM (%)
Give the number; % is assumed, so skip it.

| Compound | Units Label | Experimental Result |
| --- | --- | --- |
| C[C@@H]1CC[C@@]2(OC1)O[C@H]1C[C@H]3[C@@H]4CC=C5C[C@@H](O[C@@H]6O[C@H](CO)[C@@H](O)[C@H](O[C@@H]7OC[C@@H](O)[C@H](O)[C@H]7O)[C@H]6O[C@@H]6O[C@@H](C)[C@H](O)[C@@H](O)[C@H]6O)CC[C@]5(C)[C@H]4CC[C@]3(C)[C@H]1[C@@H]2C | % | 18.9 |
| CC1CCC2(OC1)OC1CC3C4CC=C5CC(O)CC(O)C5(C)C4CCC3(C)C1C2C (stereo not drawn) | % | 72 |

Proceeding to the next compound to report its activity at 100 µM.
The compound listed as COc1ccc(C[C@@H]2COc3c(C)c(O)c(C)c(O)c3C2=O)cc1 has a reported activity at 100 µM of 85

* * *

Target: UGT1A4 (Homo sapiens, UniProt P22310)
Sequence (P22310 29-534): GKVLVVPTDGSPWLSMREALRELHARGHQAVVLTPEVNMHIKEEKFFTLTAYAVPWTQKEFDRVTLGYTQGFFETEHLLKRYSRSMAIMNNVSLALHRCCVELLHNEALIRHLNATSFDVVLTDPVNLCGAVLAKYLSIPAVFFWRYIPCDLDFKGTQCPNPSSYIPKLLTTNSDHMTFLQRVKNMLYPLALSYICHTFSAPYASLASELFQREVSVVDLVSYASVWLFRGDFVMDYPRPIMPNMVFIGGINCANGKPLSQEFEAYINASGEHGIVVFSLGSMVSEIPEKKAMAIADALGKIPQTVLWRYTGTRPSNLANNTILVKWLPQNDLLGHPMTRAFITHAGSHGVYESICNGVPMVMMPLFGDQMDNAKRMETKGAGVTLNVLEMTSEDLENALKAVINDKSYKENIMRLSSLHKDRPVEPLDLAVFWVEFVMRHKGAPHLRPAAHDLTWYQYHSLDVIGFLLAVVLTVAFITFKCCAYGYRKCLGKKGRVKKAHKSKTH
Assay: Recombinant UGT1A4-catalyzed trifluoperazine (TFP) glucuronidation inhibition
Conditions: UGT1A4-catalyzed TFP glucuronidation; read-out: inhibition kinetic parameter (Ki)
Property Measured: Ki (nM)
Give the number; nM is assumed, so skip it.

The molecule listed as CC1CCC2(OC1)OC1CC3C4CC=C5CC(O)CC(O)C5(C)C4CCC3(C)C1C2C (stereo not shown) has a reported Ki of 20

* * *

molecular target: UGT1A6 (Homo sapiens, UniProt P19224); construct: purchased BD Gentest Corp. (Woburn, MA, USA); host or cells: baculovirus-infected insect cells; assay: Recombinant UGT1A6-catalyzed 4-MU glucuronidation inhibition; format: in vitro ADME; conditions: human, pH 7.4, probe 4-methylumbelliferone (4-MU); UGT1A6, 100 μM of compound, 4-MU substrate; read-out: residual activity
Sequence (P19224 27-532): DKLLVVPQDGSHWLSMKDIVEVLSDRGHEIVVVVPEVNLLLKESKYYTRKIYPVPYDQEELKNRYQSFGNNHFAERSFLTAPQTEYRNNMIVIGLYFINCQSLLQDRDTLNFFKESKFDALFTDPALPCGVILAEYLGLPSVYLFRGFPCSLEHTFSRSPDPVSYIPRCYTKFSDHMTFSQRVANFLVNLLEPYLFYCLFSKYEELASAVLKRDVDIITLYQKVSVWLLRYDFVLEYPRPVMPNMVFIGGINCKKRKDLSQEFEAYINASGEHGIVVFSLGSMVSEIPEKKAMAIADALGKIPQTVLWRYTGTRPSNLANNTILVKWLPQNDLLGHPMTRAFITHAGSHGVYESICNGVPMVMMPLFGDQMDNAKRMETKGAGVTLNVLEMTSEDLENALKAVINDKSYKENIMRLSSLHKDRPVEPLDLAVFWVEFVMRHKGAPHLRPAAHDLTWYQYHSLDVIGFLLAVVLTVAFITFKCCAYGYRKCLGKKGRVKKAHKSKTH
Measured activity at 100 µM by item
Give the number; % is assumed, so skip it.

| Compound | activity at 100 µM / % |
| --- | --- |
| C[C@@H]1CC[C@@]2(OC1)O[C@H]1C[C@H]3[C@@H]4CC=C5C[C@@H](O)C[C@@H](O[C@@H]6O[C@H](C)[C@H](O)[C@H](O[C@@H]7OC[C@@H](O)[C@H](O)[C@H]7O)[C@H]6O[C@@H]6O[C@@H](C)[C@H](O)[C@@H](O)[C@H]6O)[C@]5(C)[C@H]4CC[C@]3(C)[C@H]1[C@@H]2C | 12.8 |
| CC1CCC2(OC1)OC1CC3C4CC=C5CC(O)CC(O)C5(C)C4CCC3(C)C1C2C (centres unmarked) | 65.9 |
| COc1ccc(C[C@@H]2COc3c(C)c(O)c(C)c(O)c3C2=O)cc1 | 65.3 |
| Cc1c(O)c(C)c2c(c1O)C(=O)[C@H](Cc1ccc3c(c1)OCO3)CO2 | 67 |

The compound listed as C[C@@H]1CC[C@@]2(OC1)O[C@H]1C[C@H]3[C@@H]4CC=C5C[C@@H](O[C@@H]6O[C@H](CO)[C@@H](O)[C@H](O[C@@H]7OC[C@@H](O)[C@H](O)[C@H]7O)[C@H]6O[C@@H]6O[C@@H](C)[C@H](O)[C@@H](O)[C@H]6O)CC[C@]5(C)[C@H]4CC[C@]3(C)[C@H]1[C@@H]2C has a reported activity at 100 µM of 12.1

* * *

Target: UGT1A9 (Homo sapiens)
Construct: purchased BD Gentest Corp. (Woburn, MA, USA); host or cells: baculovirus-infected insect cells
Sequence (O60656 26-530): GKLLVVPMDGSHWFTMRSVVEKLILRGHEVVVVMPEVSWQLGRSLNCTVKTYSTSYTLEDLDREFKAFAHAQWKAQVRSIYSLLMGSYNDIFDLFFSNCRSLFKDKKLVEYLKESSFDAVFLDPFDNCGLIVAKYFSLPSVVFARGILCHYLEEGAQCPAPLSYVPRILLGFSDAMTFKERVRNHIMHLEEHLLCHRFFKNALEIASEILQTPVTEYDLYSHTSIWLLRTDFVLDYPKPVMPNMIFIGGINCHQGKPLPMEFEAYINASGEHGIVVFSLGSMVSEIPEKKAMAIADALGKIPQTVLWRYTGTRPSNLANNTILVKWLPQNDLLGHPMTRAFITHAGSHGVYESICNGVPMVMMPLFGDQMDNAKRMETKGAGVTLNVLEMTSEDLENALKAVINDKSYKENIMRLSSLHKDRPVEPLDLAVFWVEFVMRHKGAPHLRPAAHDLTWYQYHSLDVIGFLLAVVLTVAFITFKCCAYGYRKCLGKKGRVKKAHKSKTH
Test: Recombinant UGT1A9-catalyzed 4-MU glucuronidation inhibition
Type: in vitro ADME
Settings: pH 7.4, probe 4-methylumbelliferone (4-MU), UGT1A9, 100 μM of compound, 4-MU substrate, read-out: residual activity
Property Measured: activity at 100 µM (%)
Give the number; % is assumed, so skip it.

Record excerpt, results attached:
| Compound | Experimental Target | Property Measured | Units Label | Experimental Result |
| --- | --- | --- | --- | --- |
| C[C@@H]1CC[C@@]2(OC1)O[C@H]1C[C@H]3[C@@H]4CC=C5C[C@@H](O)C[C@@H](O[C@@H]6O[C@H](C)[C@H](O)[C@H](O[C@@H]7OC[C@@H](O)[C@H](O)[C@H]7O)[C@H]6O[C@@H]6O[C@@H](C)[C@H](O)[C@@H](O)[C@H]6O)[C@]5(C)[C@H]4CC[C@]3(C)[C@H]1[C@@H]2C | UGT1A9 (Homo sapiens) | activity at 100 µM | % | 135 |
| CC1CCC2(OC1)OC1CC3C4CC=C5CC(O)CC(O)C5(C)C4CCC3(C)C1C2C (centres unmarked) | UGT1A9 (Homo sapiens) | activity at 100 µM | % | 111 |
| C[C@@H]1CC[C@@]2(OC1)O[C@H]1C[C@H]3[C@@H]4CC=C5C[C@@H](O[C@@H]6O[C@H](CO)[C@@H](O)[C@H](O[C@@H]7OC[C@@H](O)[C@H](O)[C@H]7O)[C@H]6O[C@@H]6O[C@@H](C)[C@H](O)[C@@H](O)[C@H]6O)CC[C@]5(C)[C@H]4CC[C@]3(C)[C@H]1[C@@H]2C | UGT1A9 (Homo sapiens) | activity at 100 µM | % | 134 |
| Cc1c(O)c(C)c2c(c1O)C(=O)[C@H](Cc1ccc3c(c1)OCO3)CO2 | UGT1A9 (Homo sapiens) | activity at 100 µM | % | 38.7 |

Proceeding to the next compound to report its activity at 100 µM.
The compound listed as COc1ccc(C[C@@H]2COc3c(C)c(O)c(C)c(O)c3C2=O)cc1 has a reported activity at 100 µM of 68.2

* * *

target: UGT1A10 (Homo sapiens); construct: purchased BD Gentest Corp. (Woburn, MA, USA); host or cells: baculovirus-infected insect cells; assay: Recombinant UGT1A10-catalyzed 4-MU glucuronidation inhibition; type: in vitro ADME; details: human, pH 7.4, probe 4-methylumbelliferone (4-MU); UGT1A10, at 100 μM; read-out: inhibition percent
Sequence (Q9HAW8 26-530): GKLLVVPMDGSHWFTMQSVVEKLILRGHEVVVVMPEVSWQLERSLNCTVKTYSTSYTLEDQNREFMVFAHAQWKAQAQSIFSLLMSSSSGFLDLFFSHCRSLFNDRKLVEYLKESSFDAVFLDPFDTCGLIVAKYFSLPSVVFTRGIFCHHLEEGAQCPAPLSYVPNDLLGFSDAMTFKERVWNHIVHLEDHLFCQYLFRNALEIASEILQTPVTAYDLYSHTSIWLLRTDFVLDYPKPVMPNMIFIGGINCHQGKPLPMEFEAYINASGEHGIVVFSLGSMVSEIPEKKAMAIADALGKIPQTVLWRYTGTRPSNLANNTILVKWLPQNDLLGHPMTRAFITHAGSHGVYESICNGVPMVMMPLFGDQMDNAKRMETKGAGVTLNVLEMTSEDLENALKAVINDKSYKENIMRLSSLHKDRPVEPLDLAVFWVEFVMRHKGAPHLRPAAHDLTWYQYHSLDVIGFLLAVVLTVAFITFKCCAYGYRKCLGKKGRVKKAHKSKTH
Property Measured: inhibition at 100 µM (%)
Give the number; % is assumed, so skip it.

The compound listed as C[C@@H]1CC[C@@]2(OC1)O[C@H]1C[C@H]3[C@@H]4CC=C5C[C@@H](O[C@@H]6O[C@H](CO)[C@@H](O)[C@H](O[C@@H]7OC[C@@H](O)[C@H](O)[C@H]7O)[C@H]6O[C@@H]6O[C@@H](C)[C@H](O)[C@@H](O)[C@H]6O)CC[C@]5(C)[C@H]4CC[C@]3(C)[C@H]1[C@@H]2C has a reported inhibition at 100 µM of 80.2
